Entries and their binding signal
target: OsWRKY34 (Oryza sativa, UniProt Q0JBA9 1-250); test: protein-binding microarray (RPBM); PBS, 2% BSA, 51.3 ng/ul salmon testes DNA, 50 uM zinc acetate, 200 nM TF, 25 C, 1 h; high values mean tight binding; conditions: protein: recombinant; tags: N-terminal polyhistidine and DsRed monomer fusion (pET32a); label: CyDye5-dUTP incorporated in the synthesized complementary strand; 3' TTTTT single-stranded linker to array surface; dsDNA, one strand shown
Sequence (Q0JBA9 entry or part of it): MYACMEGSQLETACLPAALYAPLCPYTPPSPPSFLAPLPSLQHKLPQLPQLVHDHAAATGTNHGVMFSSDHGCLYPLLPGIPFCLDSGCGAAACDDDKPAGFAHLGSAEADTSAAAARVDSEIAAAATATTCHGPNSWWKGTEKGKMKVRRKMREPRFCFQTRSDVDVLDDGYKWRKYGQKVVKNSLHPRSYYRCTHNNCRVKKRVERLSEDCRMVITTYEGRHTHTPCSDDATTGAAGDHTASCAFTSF
Whole data set: some 68,000 sequences, median “fluorescence intensity (a.u.)” near 9,100, cut for the highest 2% near 16,000. This excerpt belongs to a sample that is enriched for the highest values.

sequence_record=CGAGTGACGAGGTCTTGGGTTGGGGTAGGGGTGGGATGAGCGGAGTCACCTAGTGCAG system="OsWRKY34 (Oryza sativa, UniProt Q0JBA9 1-250)" result="19900 fluorescence intensity (a.u.)"
sequence_record=CTTCTCTCCTCTCCGCTGTGGTTTCTTGCTGGTTCTTGGACGGAGTCACCTAGTGCAG system="OsWRKY34 (Oryza sativa, UniProt Q0JBA9 1-250)" result="10400 fluorescence intensity (a.u.)"
sequence_record=GGGAGGGGTGGCTCGGCGGCGGTGCGGGGTGGCGGTGCTCCGGAGTCACCTAGTGCAG system="OsWRKY34 (Oryza sativa, UniProt Q0JBA9 1-250)" result="18700 fluorescence intensity (a.u.)"

Query: Quick one: binding signal of GACATTACGGGCCCACAAGTACGCGTCCCCACCAGCCATACGGAGTCACCTAGTGCAG ?
Reply: 8490 fluorescence intensity (a.u.)

Query: Quick one: binding signal of GAGTGGTGGAGGGTTGTGATTGGATGAGTAGTGGAGGTAGCGGAGTCACCTAGTGCAG ?
Reply: 8760 fluorescence intensity (a.u.)

* * *

molecular target: OsWRKY34 (Oryza sativa, UniProt Q0JBA9 1-250); experiment: protein-binding microarray (RPBM); PBS, 2% BSA, 51.3 ng/ul salmon testes DNA, 50 uM zinc acetate, 200 nM TF, 25 C, 1 h; high values mean tight binding; details: protein: recombinant; tags: N-terminal polyhistidine and DsRed monomer fusion (pET32a); label: CyDye5-dUTP incorporated in the synthesized complementary strand; 3' TTTTT single-stranded linker to array surface; dsDNA, one strand shown
The full ranking holds about 68,000 sequences; the median of “fluorescence intensity (a.u.)” is about 9,100, and the highest 2% start at about 16,000. For the sample, the highest values were picked, then their nearest neighbours and some sequences at random.
Entries and their binding signal

Recorded results for 6 sequences are shown here.
sequence_record=GCTGGGAGTTAGAACGGTGATCCATCTAGATGTAATGGTCCGGAGTCACCTAGTGCAG system="OsWRKY34 (Oryza sativa, UniProt Q0JBA9 1-250)" readout_label="binding signal" result="8740 fluorescence intensity (a.u.)"
sequence_record=CTTGTAGCTGTAATTCCCTATTGTTGTTTTTCGGTACTGTCGGAGTCACCTAGTGCAG system="OsWRKY34 (Oryza sativa, UniProt Q0JBA9 1-250)" readout_label="binding signal" result="13200 fluorescence intensity (a.u.)"
sequence_record=CATGTTGTTCTGTTTGATGTTGCCCACTACGGTCTTTAGTCGGAGTCACCTAGTGCAG system="OsWRKY34 (Oryza sativa, UniProt Q0JBA9 1-250)" readout_label="binding signal" result="10900 fluorescence intensity (a.u.)"
sequence_record=AGTAGGAGGGTGGGTATTTGCAACAAAATGACTTATGAGGCGGAGTCACCTAGTGCAG system="OsWRKY34 (Oryza sativa, UniProt Q0JBA9 1-250)" readout_label="binding signal" result="12800 fluorescence intensity (a.u.)"
sequence_record=GCAAGTACTTGGTGGTATATGTTGTTTGGAATAAAAAGGTCGGAGTCACCTAGTGCAG system="OsWRKY34 (Oryza sativa, UniProt Q0JBA9 1-250)" readout_label="binding signal" result="8320 fluorescence intensity (a.u.)"
sequence_record=AAAATAACTTACGGGGTGGAATGTCAAACTTCAAGTGACTCGGAGTCACCTAGTGCAG system="OsWRKY34 (Oryza sativa, UniProt Q0JBA9 1-250)" readout_label="binding signal" result="8470 fluorescence intensity (a.u.)"

Query: Quick one: binding signal of GCCTATTTTTTCGTACGGAGTTGGCTTGTAGTAGTTGCATCGGAGTCACCTAGTGCAG ?
Reply: 8950 fluorescence intensity (a.u.)

Query: Quick one: binding signal of CATATGCACTAACAAAACCGAGTAGGAGGGTGGGTATTTGCGGAGTCACCTAGTGCAG ?
Reply: 8580 fluorescence intensity (a.u.)

Query: Quick one: binding signal of CATTACTTTTTTGGTGGACTTGCAAAAACATGGGCATTTTCGGAGTCACCTAGTGCAG ?
Reply: 8680 fluorescence intensity (a.u.)

* * *

biological target: OsWRKY34 (Oryza sativa, UniProt Q0JBA9 1-250); experiment: protein-binding microarray (RPBM); PBS, 2% BSA, 51.3 ng/ul salmon testes DNA, 50 uM zinc acetate, 200 nM TF, 25 C, 1 h; high values mean tight binding; details: protein: recombinant; tags: N-terminal polyhistidine and DsRed monomer fusion (pET32a); label: CyDye5-dUTP incorporated in the synthesized complementary strand; 3' TTTTT single-stranded linker to array surface; dsDNA, one strand shown
Whole data set: some 68,000 sequences, median “fluorescence intensity (a.u.)” near 9,100, cut for the highest 2% near 16,000. This is one part of a sample in which the highest values are shown more often than they occur.
readout.label: binding signal

Recorded results for 5 sequences are shown here.
sequence_record=AAAAACTGGGCCAGCTTTTTGTTTTTTTTACCACCCACAGCGGAGTCACCTAGTGCAG system="OsWRKY34 (Oryza sativa, UniProt Q0JBA9 1-250)" result="9010 fluorescence intensity (a.u.)"
sequence_record=CTGGGGTTAGTTCTATGGATATTTGCTACTCCTGTTGATACGGAGTCACCTAGTGCAG system="OsWRKY34 (Oryza sativa, UniProt Q0JBA9 1-250)" result="8220 fluorescence intensity (a.u.)"
sequence_record=GTGGGAGAGGCCGGCCGAGGGGAGGAGAGGGGAGGGGTGCCGGAGTCACCTAGTGCAG system="OsWRKY34 (Oryza sativa, UniProt Q0JBA9 1-250)" result="10700 fluorescence intensity (a.u.)"
sequence_record=ATATATATATATATATATATACATACATATACACACACACCGGAGTCACCTAGTGCAG system="OsWRKY34 (Oryza sativa, UniProt Q0JBA9 1-250)" result="8050 fluorescence intensity (a.u.)"
sequence_record=GTTGACTTTTTTTTAAACATGTTTGACCATTCATCTTATTCGGAGTCACCTAGTGCAG system="OsWRKY34 (Oryza sativa, UniProt Q0JBA9 1-250)" result="11100 fluorescence intensity (a.u.)"

Query: Quick one: binding signal of TTCTGGATCTTGACTCTTGACCAGTTCATCCACACGTGTGCGGAGTCACCTAGTGCAG ?
Reply: 8540 fluorescence intensity (a.u.)

Query: Quick one: binding signal of CACCGTTAACTTTTTATTACGTATTTGACCATTTGTCTTACGGAGTCACCTAGTGCAG ?
Reply: 10200 fluorescence intensity (a.u.)

Query: Quick one: binding signal of GGTGGTGGTGGTGGTGCCGGAGCTGGGGAGAAGAGGAGGACGGAGTCACCTAGTGCAG ?
Reply: 9350 fluorescence intensity (a.u.)

Query: Quick one: binding signal of GTTGTTGACTTTTTAAAATTTGTTTGACCATTCATCTTATCGGAGTCACCTAGTGCAG ?
Reply: 23100 fluorescence intensity (a.u.)

* * *

biological target: OsWRKY34 (Oryza sativa, UniProt Q0JBA9 1-250); test: protein-binding microarray (RPBM); PBS, 2% BSA, 51.3 ng/ul salmon testes DNA, 50 uM zinc acetate, 200 nM TF, 25 C, 1 h; high values mean tight binding; details: protein: recombinant; tags: N-terminal polyhistidine and DsRed monomer fusion (pET32a); label: CyDye5-dUTP incorporated in the synthesized complementary strand; 3' TTTTT single-stranded linker to array surface; dsDNA, one strand shown
Whole data set: some 68,000 sequences, median “fluorescence intensity (a.u.)” near 9,100, cut for the highest 2% near 16,000. This excerpt belongs to a sample that is enriched for the highest values.
readout.label: binding signal

Recorded results for 3 sequences are shown here.
sequence_record=CTGTTACTTCACAGTTATTTTTGTTGGGTGGGGACGTGGGCGGAGTCACCTAGTGCAG system="OsWRKY34 (Oryza sativa, UniProt Q0JBA9 1-250)" readout_label="binding signal" result="12600 fluorescence intensity (a.u.)"
sequence_record=ACGTTATTTATTGTTTTAGGTTCAATCTACGAGTTTCTTTCGGAGTCACCTAGTGCAG system="OsWRKY34 (Oryza sativa, UniProt Q0JBA9 1-250)" readout_label="binding signal" result="10700 fluorescence intensity (a.u.)"
sequence_record=AGTGTTTGGTTTGAGGAGGACTAGTGGGGTGGTTTTTTGACGGAGTCACCTAGTGCAG system="OsWRKY34 (Oryza sativa, UniProt Q0JBA9 1-250)" readout_label="binding signal" result="13900 fluorescence intensity (a.u.)"

Query: Quick one: binding signal of CGTCCAGTCCGCTCCCTCCCTCATTCATTCGGTTCGGTAACGGAGTCACCTAGTGCAG ?
Reply: 8870 fluorescence intensity (a.u.)

Query: Quick one: binding signal of ACGCGGCCGCCGAGCTGGACTCCTCATCCCCAGCTTCGCTCGGAGTCACCTAGTGCAG ?
Reply: 8600 fluorescence intensity (a.u.)

Query: Quick one: binding signal of CCGACGCCTACTACTTCGCCCACTAGCCACGCGTGCTGCCCGGAGTCACCTAGTGCAG ?
Reply: 9050 fluorescence intensity (a.u.)

Query: Quick one: binding signal of CAGCGGGCCCAGCAAGTCAGCCTCACATCTTCTTCTTCATCGGAGTCACCTAGTGCAG ?
Reply: 8340 fluorescence intensity (a.u.)
